- target.or.system: human TLR8 (Homo sapiens)
- Sequence (Q9NR97 27-1041): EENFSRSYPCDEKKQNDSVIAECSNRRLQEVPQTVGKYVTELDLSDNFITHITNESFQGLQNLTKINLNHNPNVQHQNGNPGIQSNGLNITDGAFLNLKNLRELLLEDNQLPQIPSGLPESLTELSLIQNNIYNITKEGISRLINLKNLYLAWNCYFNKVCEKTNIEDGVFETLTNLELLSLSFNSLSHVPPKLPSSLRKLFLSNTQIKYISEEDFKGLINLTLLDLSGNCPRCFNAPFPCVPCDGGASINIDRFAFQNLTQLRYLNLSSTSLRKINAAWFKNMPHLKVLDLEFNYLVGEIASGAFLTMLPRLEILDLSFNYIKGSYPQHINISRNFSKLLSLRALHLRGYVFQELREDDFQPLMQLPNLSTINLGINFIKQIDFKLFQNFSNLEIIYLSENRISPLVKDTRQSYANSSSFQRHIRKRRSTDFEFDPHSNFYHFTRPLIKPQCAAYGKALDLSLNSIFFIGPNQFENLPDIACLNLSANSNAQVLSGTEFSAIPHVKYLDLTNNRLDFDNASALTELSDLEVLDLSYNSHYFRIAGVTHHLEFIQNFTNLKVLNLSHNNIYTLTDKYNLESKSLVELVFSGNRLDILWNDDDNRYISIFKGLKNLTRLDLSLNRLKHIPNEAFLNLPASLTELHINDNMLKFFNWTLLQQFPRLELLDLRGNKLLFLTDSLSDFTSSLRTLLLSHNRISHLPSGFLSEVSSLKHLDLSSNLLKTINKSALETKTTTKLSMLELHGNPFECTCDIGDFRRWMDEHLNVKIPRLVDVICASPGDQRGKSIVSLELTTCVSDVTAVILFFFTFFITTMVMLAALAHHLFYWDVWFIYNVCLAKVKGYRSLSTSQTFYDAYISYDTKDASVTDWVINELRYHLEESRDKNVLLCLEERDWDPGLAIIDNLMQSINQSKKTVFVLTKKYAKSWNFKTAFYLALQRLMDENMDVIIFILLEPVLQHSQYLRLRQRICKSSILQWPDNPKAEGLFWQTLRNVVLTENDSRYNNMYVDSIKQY
- assay.protocol: HEK293-Blue-hTLR-8 cells assay (SEAP reporter, R848 stimulation)
- conditions.used: HEK293-Blue-hTLR8 cells, R848, 20 hrs; read-out: HEK/hTLR8 IC50
attribute.measured: IC50 (nM)

> print(dat)
                                   compound           target.or.system  attribute.measured  reported
1  COC[C@H]1CN(c2cc3c(cn2)CN(c2cc(C)nc4c2cnn4C)C[C@@H]3C)CCN1  human TLR8 (Homo sapiens)                IC50         8

[P] C[C@H]1CN(c2ccnc3c2cnn3C)Cc2ccc(N3CCN(C(=O)C4CNCCO4)CC3)cc21 (stereo partly shown)
[Q] Cc1cc(N2Cc3ccc(N4CCC(N(C)C)CC4)nc3[C@@H](C)C2)c2cnn(C)c2n1
Task: // compare measured IC50, left P , right Q , return larger Your answer should be the label of the entry you select.
Output: P
(P: 8 nM, Q: 0.5 nM)

[A] C[C@H]1CN(c2ccnc3c2cnn3C)Cc2ccc(N3C[C@@]4(CCNC4)CC3=O)cc21 (single isomer, unassigned)
[B] Cc1cc(N2Cc3ccc(N4CCOC5(CNC5)C4)nc3[C@@H](C)C2)c2cnn(C)c2n1
Task: Please state the entry with greater IC50 among A and B . // output: label of the selected item
Output: B
(B: 28 nM, A: 6 nM)

[A] C[C@H]1CN(c2ccnc3c2cnn3C)Cc2ccc(OC[C@H]3CNCCN3C)cc21
[B] C[C@H]1CN(c2ccnc3c2cnn3C)Cc2ccc(N3CC4(CCNCC4)CC3=O)cc21
Task: Rank A against B by their IC50 values and give the higher one. Write down the label attached to your selection.
Output: B
(B: 4 nM, A: 2 nM)

[I] CC1CN(c2ccnc3c2cnn3C)Cc2ccc(N3CCC4(CCNCC4)CC3)cc21 (stereo not shown)
[II] Cc1cc(N2Cc3ccc(N4CCC(C)(N)CC4)nc3[C@@H](C)C2)c2cnn(C)c2n1
Task: Response body: label of entry with the larger IC50; valid values I , II . // caller expects the label of the chosen entry
Output: I
